# Target Or System: Vascular endothelial growth factor receptor 2 (Homo sapiens)
# Sequence (P35968 whole entry, the tested form may be a part): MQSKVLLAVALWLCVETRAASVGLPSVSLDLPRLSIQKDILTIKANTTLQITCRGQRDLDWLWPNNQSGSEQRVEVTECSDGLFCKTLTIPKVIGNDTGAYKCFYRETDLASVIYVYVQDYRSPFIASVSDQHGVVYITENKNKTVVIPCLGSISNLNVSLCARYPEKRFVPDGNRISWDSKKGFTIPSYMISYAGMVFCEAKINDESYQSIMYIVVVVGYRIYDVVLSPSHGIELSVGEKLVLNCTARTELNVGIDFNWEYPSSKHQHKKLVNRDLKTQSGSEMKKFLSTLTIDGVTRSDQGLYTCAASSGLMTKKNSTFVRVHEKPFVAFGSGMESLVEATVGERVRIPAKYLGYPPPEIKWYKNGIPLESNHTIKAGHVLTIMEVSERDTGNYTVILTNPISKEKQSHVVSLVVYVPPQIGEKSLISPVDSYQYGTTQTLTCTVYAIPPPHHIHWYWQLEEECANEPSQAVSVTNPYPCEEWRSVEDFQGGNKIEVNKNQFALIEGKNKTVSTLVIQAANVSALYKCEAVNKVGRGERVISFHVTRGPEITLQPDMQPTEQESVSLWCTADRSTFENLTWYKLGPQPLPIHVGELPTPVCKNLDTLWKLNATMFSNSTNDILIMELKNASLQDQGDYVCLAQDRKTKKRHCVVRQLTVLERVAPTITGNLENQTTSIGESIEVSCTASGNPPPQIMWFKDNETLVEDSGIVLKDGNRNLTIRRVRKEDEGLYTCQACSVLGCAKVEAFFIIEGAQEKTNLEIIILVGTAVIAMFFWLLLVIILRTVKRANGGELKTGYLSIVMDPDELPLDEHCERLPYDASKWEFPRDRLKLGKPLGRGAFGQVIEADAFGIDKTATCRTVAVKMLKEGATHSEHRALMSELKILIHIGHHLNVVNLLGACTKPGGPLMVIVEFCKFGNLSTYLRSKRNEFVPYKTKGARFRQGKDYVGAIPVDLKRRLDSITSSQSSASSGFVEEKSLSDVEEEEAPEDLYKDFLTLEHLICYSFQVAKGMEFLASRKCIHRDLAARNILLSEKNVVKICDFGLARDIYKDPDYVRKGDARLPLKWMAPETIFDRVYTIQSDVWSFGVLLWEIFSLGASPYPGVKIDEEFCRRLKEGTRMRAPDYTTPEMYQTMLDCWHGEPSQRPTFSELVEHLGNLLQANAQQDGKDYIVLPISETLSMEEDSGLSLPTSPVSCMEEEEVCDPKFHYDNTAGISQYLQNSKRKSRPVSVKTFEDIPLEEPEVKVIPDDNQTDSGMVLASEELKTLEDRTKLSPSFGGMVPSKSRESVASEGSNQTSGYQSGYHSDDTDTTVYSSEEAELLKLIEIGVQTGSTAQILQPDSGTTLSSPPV
# Protocol Description: Inhibition of glutathione S-transferase fused Flk1 (unknown origin) catalytic activity infected in Sf9 cells using poly-Glu-Tyr (4:1) as substrate
Measure Name: IC50

>>> print(df.to_string())
                               input_smiles  reported_measurement
0  Cc1[nH]c(/C=C2/C(=O)Nc3ccc(S(=O)(=O)N(C)c4cccc(Cl)c4)cc32)c(C)c1C(=O)N1CCN(C)CC1               1300 nM
